assay_info: amyloid nucleation score (Sup35N fusion, yeast selection) (log enrichment); library NNK1; higher = more nucleation; inactive = no reads after selection;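 further: zero at mode of non-aggregating sequences after 7 days selection at 30°C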
parameter_measured: amyloid nucleation score
Number only, please.

| sequence_string | amyloid nucleation score |
| --- | --- |
| STHSDGVGML | -0.805 |

Given the sequence `SSRFDSLFVNNIMIFWVSKF` , what is its reported amyloid nucleation score? 5.01

Same again, this time with `DGSYTWWAFGSIQRCEGLTV` 0.177

Same again, this time with `AHSCDGPCRPHVTAVKALVL` 0.089

Same again, this time with `HRWTLMEVYITGIALKYVVY` -0.58

Same again, this time with `ETEGSELFNFWAGVNWRRIQ` -0.425

Same again, this time with `SVTLIGFILDLRTGHILWYK` -0.423

Same again, this time with `GIENLRTDV` 1.34

Same again, this time with `RTELPHFFRVFAHRFACSGD` 1.31

Same again, this time with `VCSGTFGYHRRYEWDWVLKG` 0.215
